# Species: Mus musculus
# procedure text: Anticholinergic effect in CFLP mouse assessed as mydriasis
# experimental setup: in vivo
outcome measure: ED50 (mg/kg)

Given CCN(C)CC(O)C(c1ccccc1)c1ccccc1.Cl (configuration not stated) , respond with its ED50.
36

Given "Br.CN(C)C[C@@H](O)C(c1ccccc1)c1ccccc1" , respond with its ED50.
46

Given "CN(C)CCCN1c2ccccc2CCc2ccccc21" , respond with its ED50.
20

I. CN(C)CC(O)C(c1ccccc1)c1cccc(C(F)(F)F)c1.Cl (configuration not stated)
II. Br.CN(C)CC(O)C(c1ccccc1)c1ccccc1 (configuration not stated)
III. CNCC(O)C(c1ccccc1)c1ccccc1.Cl (configuration not stated)
Ascending by ED50, please: list the compounds accordingly. Provide the ranking by listing each label in its place in the requested order.
I, II, III
(I: 26 mg/kg, II: 53 mg/kg, III: 144 mg/kg)

A. Br.CN(C)C[C@H](O)C(c1ccccc1)c1ccccc1
B. CN(C)CC(O)C(c1ccccc1)c1cccc(Br)c1.Cl (configuration not stated)
Lower ED50: A or B ? // caller expects the label of the chosen entry
A
(A: 26 mg/kg, B: 49 mg/kg)

====

# procedure text: Anticholinergic effect in sc dosed CFLP mouse assessed as inhibition of pilocarpine-induced salivation
# Type: organism-based
# experimental setup: in vivo
outcome measure: ED50 (mg/kg)

Observe how each entry below is paired with its result.
Given CNCC(O)C(c1ccccc1)c1ccccc1.Cl (stereo unspecified) , respond with its ED50.
40

Given CN(C)CC(O)C(c1ccccc1)c1ccc(Cl)cc1.O=C(O)CCC(=O)O (stereo unspecified) , respond with its ED50.
71

Given CN(C)CC(O)C(c1ccccc1)c1cccc(Cl)c1.Cl (stereo unspecified) , respond with its ED50.
33

Given "Br.CN(C)C[C@@H](O)C(c1ccccc1)c1ccccc1" , respond with its ED50.
51

Given CCN(C)CC(O)C(c1ccccc1)c1ccccc1.Cl (stereo unspecified) , respond with its ED50.
43

a. Br.CN(C)C[C@H](O)C(c1ccccc1)c1ccccc1
b. Br.CN(C)CC(O)C(c1ccccc1)c1ccccc1 (stereo unspecified)
c. CN(C)CC(O)C(c1ccccc1)c1ccccc1Cl.Cl (stereo unspecified)
d. CN(C)CCCN1c2ccccc2CCc2ccccc21
Ascending by ED50, please: list the compounds accordingly. Provide the ranking by listing each label in its place in the requested order.
d, c, b, a
(d: 3.3 mg/kg, c: 24 mg/kg, b: 36 mg/kg, a: 63 mg/kg)

====

# System: Mus musculus
# procedure text: Antidepressant activity against reserpine-induced hypothermia CFLP mouse model assessed as change in esophageal temperature at 10 mg/kg, po treated before 2 to 24 hrs of reserpine challenge
# Format: functional, organism-based
# Set-up: dose 10 mg/kg
Reported values of deltaT for individual entries
Give your result in °C as a bare value.

Observe how each entry below is paired with its result.
Given CCN(CC)CC(O)C(c1ccccc1)c1ccccc1 (stereo unspecified) , respond with its deltaT.
5

Given COc1ccc(C(c2ccccc2)C(O)CN(C)C)cc1 (stereo unspecified) , respond with its deltaT.
5.9

Given CN(C)CC(OC(=O)c1ccccc1)C(c1ccccc1)c1cccc(Cl)c1 (stereo unspecified) , respond with its deltaT.
5.2

Given CN(Cc1ccccc1)CC(O)C(c1ccccc1)c1ccccc1 (stereo unspecified) , respond with its deltaT.
6.1

Given CN(C)CC(O)C(O)(c1ccccc1)c1ccc(F)cc1 (stereo unspecified) , respond with its deltaT.
7.5

Given Cc1ccccc1C(c1ccccc1)C(O)CN(C)C (stereo unspecified) , respond with its deltaT.
10.4

Next:
Given CCN(C)CC(O)C(c1ccccc1)c1ccccc1.Cl (stereo unspecified) , respond with its deltaT.
10.2

Given CNCC(O)C(c1ccccc1)c1ccc(Cl)cc1 (stereo unspecified) , respond with its deltaT.
8.8

Given CN(C)CC(O)C(c1ccc(F)cc1)c1ccc(F)cc1 (stereo unspecified) , respond with its deltaT.
7.8

Given CN(C)CC(O)C(c1ccccc1)c1ccc(Cl)c(Cl)c1 (stereo unspecified) , respond with its deltaT.
7.2

Given CN(Cc1ccccc1)CC(O)C(c1ccccc1)c1ccc(F)cc1 (stereo unspecified) , respond with its deltaT.
7.3
